Tested on: SN12C renal
ASSAY DETAILS: NCI tumour cell line growth inhibition, 48 h
Would you mind telling me the reported TGI of each entry?

Assign TGI to the following record: `O=C1C(c2c[nH]c3ccccc23)=C(c2c[nH]c3ccccc23)C(=O)N1O` > 25 µM

Assign TGI to the following record: `CC[N+](C)(CC)CCC(O)(c1ccccc1)c1ccccc1` > 100 µM

Assign TGI to the following record: `NC(=S)N/N=C\c1ccc(OCc2cccc(COc3ccc(/C=N/NC(N)=S)cc3)n2)cc1` > 100 µM

Assign TGI to the following record: Cc1nc2c3c(ncn2n1)Oc1c(c(-c2ccccc2)nn1-c1ccccc1)C3c1ccc(Cl)cc1 (centres undefined) > 100 µM

* * *

Test system: MALME-3M melanoma
ASSAY DETAILS: NCI tumour cell line growth inhibition, 48 h
ATTRIBUTE MEASURED: TGI

Assign TGI to the following record: `NC1CCCCC1.[O]=[Ge].[O]=[Ge].[O]=[Ge][OH].[O]=[Ge][OH]` > 100 µM

Assign TGI to the following record: `Cc1cc(=O)n2nc(SCc3ccccc3)sc2n1` > 100 µM

Assign TGI to the following record: CC[N+]1(C)CCC(O)(/C=C/c2ccc(OC)cc2)C(C(=O)/C=C/c2ccc(OC)cc2)C1 (centres undefined) 34.6 µM

Assign TGI to the following record: `CCCc1c(CC)c(=N)c2ccccc2n1C` > 100 µM

Assign TGI to the following record: Cc1nc2c3c(ncn2n1)Oc1c(c(-c2ccccc2)nn1-c1ccccc1)C3c1ccc(Cl)cc1 (centres undefined) > 100 µM

Assign TGI to the following record: CC(=O)Nc1ccc(C(=O)NN2C(=O)C(Cl)C2c2ccc([N+](=O)[O-])cc2)cc1 (centres undefined) > 100 µM

Assign TGI to the following record: CC1OC2=N[C@@H]1C(=O)N[C@@H](C(C)C)C1=N[C@H](C(=O)N[C@@H](C(C)C)C3=N[C@H](C(=O)N[C@@H](C(C)C)C4=N[C@H](C(=O)N[C@H]2C(C)C)C(C)O4)C(C)O3)C(C)O1 (some centres undefined) > 10 µM

Assign TGI to the following record: `COc1nc2c(c(=O)n1C)N[C@H]1[C@H](OC(C)=O)[C@@H](OC(C)=O)CO[C@H]1N2` > 100 µM

Assign TGI to the following record: `O=Cc1ccccc1OCCOc1cc(OCCOc2ccccc2C=O)c(OCCOc2ccccc2C=O)cc1OCCOc1ccccc1C=O` > 100 µM

* * *

Would you mind telling me the reported TGI of each entry?
System: ACHN renal
ASSAY DETAILS: NCI tumour cell line growth inhibition, 48 h

Please indicate recorded TGI of `COc1ccc(N(C)C(=O)N(C)c2ccc([N+](=O)[O-])cc2)cc1` measured with ACHN renal. > 100 µM

Please indicate recorded TGI of `O=C1CCC2(CCO1)OCCO2` measured with ACHN renal. > 100 µM

Please indicate recorded TGI of `CC[N+](C)(CC)CCC(O)(c1ccccc1)c1ccccc1` measured with ACHN renal. > 100 µM

Please indicate recorded TGI of `O=C(CSCC(=O)N/N=C/c1cccs1)N/N=C/c1cccs1` measured with ACHN renal. > 100 µM

Please indicate recorded TGI of `COC[C@@H](N=CN1CCc2cc(OC)c(OC)cc2[C@@H]1C)C(C)(C)C` measured with ACHN renal. > 100 µM

Please indicate recorded TGI of `O=C1c2ccc([N+](=O)[O-])cc2-c2c1c1ccccc1c(=O)n2CCCNCCCNCCCn1c2c(c3ccc([N+](=O)[O-])cc3c1=O)C(=O)c1ccccc1-2` measured with ACHN renal. 15.9 µM

Please indicate recorded TGI of `Cc1cc(O)c(C(C)C)cc1SC#N` measured with ACHN renal. 30.1 µM

Please indicate recorded TGI of `Cn1nc(-c2ccccc2)c(C(=O)/C=C/c2ccc(F)cc2)c(N2CCCCC2)c1=O` measured with ACHN renal. 27.7 µM

Please indicate recorded TGI of `CC(=O)/C(=C/n1c(=S)[nH]c2ccccc21)C(=O)Nc1ccccc1C` measured with ACHN renal. > 100 µM

Please indicate recorded TGI of `CCOC(=O)C1=C(C(=O)c2ccc(C)cc2)C(c2cccc([N+](=O)[O-])c2)C(C(=O)c2ccc(C)cc2)=C(C(=O)OCC)N1` measured with ACHN renal. 28.3 µM

Please indicate recorded TGI of Nc1ncnc2c1ncn2C1CCC(COS(N)(=O)=O)C1 (centres undefined) measured with ACHN renal. > 100 µM

Please indicate recorded TGI of `N#CC(C#N)=C1C(C#N)=C(N)NC12OCCO2` measured with ACHN renal. > 100 µM

Please indicate recorded TGI of CCCCC1CC(c2cccc([N+](=O)[O-])c2)=NO1 (centres undefined) measured with ACHN renal. > 100 µM

Please indicate recorded TGI of O=C(Nc1cccc([N+](=O)[O-])c1)C(=O)C(C(=O)c1ccccc1-c1ccccc1)C1OC(=O)c2ccccc21 (centres undefined) measured with ACHN renal. > 100 µM

* * *

Test system: SK-OV-3 ovarian
ASSAY DETAILS: NCI tumour cell line growth inhibition, 48 h
Would you mind telling me the reported TGI of each entry?

Assign TGI to the following record: CC1CCP(=O)(c2ccccc2)c2ccccc21 (stereo unspecified) > 100 µM

Assign TGI to the following record: COC(=O)C(C(=O)C(=O)Nc1ccc(C(F)(F)F)cc1[N+](=O)[O-])c1csc(-n2nc(-c3ccccc3)cc2-c2ccccc2)n1 (stereo unspecified) > 100 µM

Assign TGI to the following record: COC(=O)C1C(O)CC(c2ccccn2)N(Cc2ccccc2)C1c1ccccn1 (stereo unspecified) > 100 µM

Assign TGI to the following record: `CCCCc1c2c(nc3c1CCc1cc4cc5c(nc4nc1-3)-c1nc3c(c(CCCC)c1CC5)CCCC3)CCCC2` > 100 µM

Assign TGI to the following record: `CN(C)CCNC(=O)c1ccc(NCCCN(C)CCCNc2ccc3c(=O)n(CCN(C)C)c(=O)n4c5ccccc5c(=O)c2c34)c2c(=O)c3ccccc3[nH]c12` 0.411 µM

Assign TGI to the following record: C=C(CCCCCCCCC)CC(=O)SCCNC(=O)CCNC(=O)C(O)C(C)(C)COP(=O)(O)OP(=O)(O)OCC1OC(n2cnc3c(N)ncnc32)C(O)C1OP(=O)(O)O (stereo unspecified) > 100 µM

Assign TGI to the following record: `O=Cc1ccccc1OCCOc1cc(OCCOc2ccccc2C=O)c(OCCOc2ccccc2C=O)cc1OCCOc1ccccc1C=O` > 100 µM

Assign TGI to the following record: `CCCCCCCNc1nc(C(=O)OCC)ncc1-c1ccc(C(F)(F)F)cc1` > 100 µM

Assign TGI to the following record: `CCOC(=O)C(=[N+]=[N-])C(=O)Nc1nn2nnnc2c2ccccc12` > 100 µM

Assign TGI to the following record: `CC1(C)CC[C@H](Nc2ncc(C(F)(F)F)c(-c3c[nH]c4c(P(C)(C)=O)c(C#N)ccc34)n2)CN1` 5.46 µM

Assign TGI to the following record: `Cc1ccc(-c2cc(-c3ccco3)c(C#N)c(=O)[nH]2)cc1` 97.6 µM

Assign TGI to the following record: `COc1ccc(N2Cc3cnc(Nc4ccccc4)nc3N([C@@H]3CC[C@@H](O)C3)C2=O)cc1` > 25 µM

Assign TGI to the following record: COc1cccc(CC(C)NCC(O)c2ccc(O)c(O)c2)c1 (stereo unspecified) > 100 µM

Assign TGI to the following record: `Cc1ccc(C(C)(C)C[P+](C)(c2ccccc2)c2ccccc2)cc1` 64.2 µM

Assign TGI to the following record: `C(=C\c1cccc(/C=C/c2ccccn2)n1)/c1ccccn1` > 100 µM

Assign TGI to the following record: `O=C(c1ccc2ccccc2c1)c1c(C(F)(F)F)n([O-])c2cc(F)c(F)cc2[n+]1=O` 27.9 µM

Assign TGI to the following record: `O=C1CCC2(CCO1)OCCO2` > 100 µM

Assign TGI to the following record: `O=C1C=C(NCCNC(=S)Nc2ccccc2)c2nccc3c2c1nc1ccccc13` > 100 µM

Assign TGI to the following record: `Clc1ccc(Cc2nc3ccccc3s2)c(Cl)c1` 43.3 µM

Assign TGI to the following record: `COc1ccc2c(c1)C(N)=C(c1ccccc1)C2=O` > 100 µM

Assign TGI to the following record: CCCNCCCC(NC(C)=O)C(=O)NCc1ccccc1 (stereo unspecified) > 100 µM

* * *

Would you mind telling me the reported TGI of each entry?
System: KM12 colon
ASSAY DETAILS: NCI tumour cell line growth inhibition, 48 h

Assign TGI to the following record: `O=C(c1ccc(Cl)cc1)c1ccc(OCCCCCCCCCCOc2ccc(C(=O)c3ccc(Cl)cc3)cc2)cc1` > 100 µM

Assign TGI to the following record: `N/N=C1/C2CN3CCN(C2)CC1(c1ccc([N+](=O)[O-])cc1)C3` > 100 µM

Assign TGI to the following record: `C=C1SC(=Nc2c(C)cc(C)cc2C)N(C(=O)c2sc3ccccc3c2Cl)C12CCCCC2` > 100 µM
